- System: Saccharomyces cerevisiae
- test-protocol: protein stability index of tFT-peptide fusion in wild type (PSI (0-1 scale)); higher = more stable (slower turnover)
- experimental-context: genetic background: wild type
# thresholds on protein stability index define classes: bucket A: < 0.2; bucket B: ≥ 0.2 and < 0.3; bucket C: ≥ 0.3

primary-sequence: VRGAIGGWRLVG
assigned-class: bucket A
--
primary-sequence: AITLPMCRLLLR
assigned-class: bucket B
--
primary-sequence: PDKRNHLIKLLA
assigned-class: bucket A
--
primary-sequence: RLIQPLPVQFLNF
assigned-class: bucket C
--
primary-sequence: RLIQLLPVQFLN
assigned-class: bucket A
--
primary-sequence: RVTILDAIYFRI
assigned-class: bucket C
--
primary-sequence: RVTRLDAIRFRI
assigned-class: bucket C
--
primary-sequence: ARGRVGLWRGAS
assigned-class: bucket C
--
primary-sequence: GLYMCLVGCWFR
assigned-class: bucket B
--
primary-sequence: CLYSLPILLFFR
assigned-class: bucket A
--
primary-sequence: RSLMVLLPLYFR
assigned-class: bucket C
--
primary-sequence: KKHKKFQKQKIN
assigned-class: bucket A
--
primary-sequence: PDKRNHLIKLLC
assigned-class: bucket A
--
primary-sequence: LKILRQKMNHQI
assigned-class: bucket A
--
primary-sequence: LKILRQKMNNQN
assigned-class: bucket B
--
primary-sequence: LKILRQKMGHQN
assigned-class: bucket C
--
primary-sequence: RVTRLDAIYWRI
assigned-class: bucket C
--
primary-sequence: GLYMCSVGCWFRL
assigned-class: bucket A
--
primary-sequence: RVTRLLAIYFRI
assigned-class: bucket A
--
primary-sequence: KITLPMCPLLLR
assigned-class: bucket B
--
primary-sequence: LVVYLSCVACINN
assigned-class: bucket A
--
primary-sequence: FSMRWTFRYEVN
assigned-class: bucket A
--
primary-sequence: PQKRNHLIKLLN
assigned-class: bucket A
--
primary-sequence: PDKRNHLIKLLNQ
assigned-class: bucket C

----------
- Test system: Saccharomyces cerevisiae
- test-protocol: protein stability index of tFT-peptide fusion (C-terminal peptide) (PSI (0-1 scale)); higher = more stable (slower turnover)
- experimental-context: genetic background: wild type; temperature: 30 C
Kind request: treat 0.7 as inclusive, so protein stability index at 0.7 or higher is Condition met, anything lower is Condition not met.

primary-sequence: CLISILLFLCFT
experimental-target: Saccharomyces cerevisiae
assigned-class: Condition not met
--
primary-sequence: KPKHNKKILEKK
experimental-target: Saccharomyces cerevisiae
assigned-class: Condition not met
--
primary-sequence: VFGSRCLLTVVV
experimental-target: Saccharomyces cerevisiae
assigned-class: Condition not met
--
primary-sequence: SPPQTETGAQRP
experimental-target: Saccharomyces cerevisiae
assigned-class: Condition not met
--
primary-sequence: PPFPARPRPHPV
experimental-target: Saccharomyces cerevisiae
assigned-class: Condition not met
--
primary-sequence: SLCTFSFLRFGF
experimental-target: Saccharomyces cerevisiae
assigned-class: Condition met
--
primary-sequence: PLFLLPSSPPAS
experimental-target: Saccharomyces cerevisiae
assigned-class: Condition met
--
primary-sequence: KNNVVKIEEEKK
experimental-target: Saccharomyces cerevisiae
assigned-class: Condition met
--
primary-sequence: LEPFTGYTVIVM
experimental-target: Saccharomyces cerevisiae
assigned-class: Condition not met
--
primary-sequence: SALSKYFLSVRL
experimental-target: Saccharomyces cerevisiae
assigned-class: Condition not met
--
primary-sequence: PKKGKKKLREKS
experimental-target: Saccharomyces cerevisiae
assigned-class: Condition met
--
primary-sequence: STVKARVLIITS
experimental-target: Saccharomyces cerevisiae
assigned-class: Condition not met
--
primary-sequence: WGGVRRVRVGGQ
experimental-target: Saccharomyces cerevisiae
assigned-class: Condition met
--
primary-sequence: LDLLRCIQHCVV
experimental-target: Saccharomyces cerevisiae
assigned-class: Condition not met
--
primary-sequence: CHYSSFISFVVV
experimental-target: Saccharomyces cerevisiae
assigned-class: Condition not met
--
primary-sequence: PLPSPPPSATSL
experimental-target: Saccharomyces cerevisiae
assigned-class: Condition not met
--
primary-sequence: PLNSNSYDASPL
experimental-target: Saccharomyces cerevisiae
assigned-class: Condition not met
--
primary-sequence: SSRRVGRWGGLG
experimental-target: Saccharomyces cerevisiae
assigned-class: Condition not met
--
primary-sequence: TFLPPTTSPYVL
experimental-target: Saccharomyces cerevisiae
assigned-class: Condition met
--
primary-sequence: PPRQPFPPILPS
experimental-target: Saccharomyces cerevisiae
assigned-class: Condition not met
--
primary-sequence: VDTPPPHHSPLL
experimental-target: Saccharomyces cerevisiae
assigned-class: Condition met
--
primary-sequence: PVSPSIHPPSYP
experimental-target: Saccharomyces cerevisiae
assigned-class: Condition met
--
primary-sequence: GPCFPRRSAPSD
experimental-target: Saccharomyces cerevisiae
assigned-class: Condition not met
--
primary-sequence: VWLGGRECVVRG
experimental-target: Saccharomyces cerevisiae
assigned-class: Condition not met
--
primary-sequence: RGWNGFWVVVVW
experimental-target: Saccharomyces cerevisiae
assigned-class: Condition not met

All figures here come from the supplement of paper PMC10724198.
